ASSAY_TARGET: Dual specificity mitogen-activated protein kinase kinase 7 (Homo sapiens)
PROTOCOL_NOTES: Binding affinity to wild type full length human MKK7 (M1 to R419 residues) expressed in mammalian expression system assessed as residual activity at 100 nM measured by Kinomescan assay
MEASURE: Activity (%)
Express your answer in %, writing the number without its unit.

Sample answers from the record:
>  <MOLECULE>
Cc1nc(NC(C)CO)c2c(n1)[nH]c1ccc(O)cc12 (centres undefined)

>  <ASSAY_TARGET>
Dual specificity mitogen-activated protein kinase kinase 7 (Homo sapiens)

>  <Activity (%)>
100

$$$$
>  <MOLECULE>
O=C(c1cccc(NS(=O)(=O)Cc2ccccc2)c1F)c1c[nH]c2ncc(-c3cnc(C4CC4)nc3)cc12

>  <ASSAY_TARGET>
Dual specificity mitogen-activated protein kinase kinase 7 (Homo sapiens)

>  <Activity (%)>
86

$$$$
>  <MOLECULE>
O=C(c1cccc(NS(=O)(=O)Cc2ccccc2)c1F)c1c[nH]c2ncc(-c3ccc(Cl)cc3)cc12

>  <ASSAY_TARGET>
Dual specificity mitogen-activated protein kinase kinase 7 (Homo sapiens)

>  <Activity (%)>
97

$$$$

# input I am curious: what Activity value has been reported for CCCS(=O)(=O)Nc1ccc(F)c(C(=O)c2c[nH]c3ncc(-c4ccc(OC)cc4)cc23)c1F ?
# output 70

# input // query: CCCS(=O)(=O)Nc1ccc(F)c(C(=O)c2c[nH]c3ncc(-c4ccccc4Cl)cc23)c1F
# output 100

# input // query: COCCS(=O)(=O)Nc1ccc(F)c(C(=O)c2c[nH]c3ncc(-c4ccc(Cl)cc4)cc23)c1F
# output 75

# input // query: CCCS(=O)(=O)Nc1ccc(F)c(C(=O)c2c[nH]c3ncc(-c4cnc(OC)nc4)cc23)c1F
# output 84

# input // query: CCCS(=O)(=O)Nc1ccc(F)c(C(=O)c2c[nH]c3ncc(-c4ccc(OC)cc4Cl)cc23)c1F
# output 100

# input // query: O=C(c1c(F)ccc(NS(=O)(=O)Cc2ccccc2)c1F)c1c[nH]c2ncc(-c3ccc(Cl)cc3)cc12
# output 100

---

ASSAY_TARGET: Dual specificity mitogen-activated protein kinase kinase 7 (Homo sapiens)
PROTOCOL_NOTES: Binding affinity to wild type full length human MKK7 (M1 to R419 residues) expressed in mammalian expression system assessed as residual activity at 100 nM measured by Kinomescan assay
MEASURE: Activity (%)
Express your answer in %, writing the number without its unit.

Sample answers from the record:
>  <CHEMICAL_SMILES>
CCCS(=O)(=O)Nc1cccc(C(=O)c2c[nH]c3ncc(-c4ccc(Cl)cc4)cc23)c1Cl

>  <ASSAY_TARGET>
Dual specificity mitogen-activated protein kinase kinase 7 (Homo sapiens)

>  <RECORDED_MEASUREMENT>
100

$$$$
>  <CHEMICAL_SMILES>
COc1ccc(-c2cnc3[nH]cc(C(=O)c4cccc(NS(=O)(=O)Cc5ccccc5)c4F)c3c2)c(Cl)c1

>  <ASSAY_TARGET>
Dual specificity mitogen-activated protein kinase kinase 7 (Homo sapiens)

>  <RECORDED_MEASUREMENT>
100

$$$$
>  <CHEMICAL_SMILES>
CS(=O)(=O)Nc1ccc(F)c(C(=O)c2c[nH]c3ncc(-c4ccc(Cl)cc4)cc23)c1F

>  <ASSAY_TARGET>
Dual specificity mitogen-activated protein kinase kinase 7 (Homo sapiens)

>  <RECORDED_MEASUREMENT>
87

$$$$
>  <CHEMICAL_SMILES>
O=C(c1c(F)ccc(NS(=O)(=O)Cc2cccc(F)c2)c1F)c1c[nH]c2ncc(-c3ccc(Cl)cc3)cc12

>  <ASSAY_TARGET>
Dual specificity mitogen-activated protein kinase kinase 7 (Homo sapiens)

>  <RECORDED_MEASUREMENT>
99

$$$$
>  <CHEMICAL_SMILES>
Cc1cccc(CS(=O)(=O)Nc2ccc(F)c(C(=O)c3c[nH]c4ncc(-c5ccc(Cl)cc5)cc34)c2F)c1

>  <ASSAY_TARGET>
Dual specificity mitogen-activated protein kinase kinase 7 (Homo sapiens)

>  <RECORDED_MEASUREMENT>
100

$$$$

# input I am curious: what Activity value has been reported for CCCS(=O)(=O)Nc1ccc(F)c(C(=O)c2c[nH]c3ncc(-c4cccc(Cl)c4)cc23)c1F ?
# output 85

# input // query: CCCS(=O)(=O)Nc1ccc(F)c(C(=O)c2c[nH]c3ncc(-c4cccc(C)c4)cc23)c1F
# output 97

# input // query: O=C(c1cccc(NS(=O)(=O)Cc2ccccc2)c1F)c1c[nH]c2ncc(-c3cc4c(cc3Cl)OCCO4)cc12
# output 100
